# System: UniProt:O15151
# Sequence (O15151 1-125): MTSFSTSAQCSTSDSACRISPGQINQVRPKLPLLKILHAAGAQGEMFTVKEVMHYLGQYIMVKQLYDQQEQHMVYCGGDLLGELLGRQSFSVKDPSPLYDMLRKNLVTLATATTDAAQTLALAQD
# Procedure summary: Competitive fluorescence polarization assay for MDMX
# Format: binding
# Conditions: competitive FP assay, read-out: IC50 (MDMX)
Where a SMILES comes first, the peptide text is derived from it. Bridges are numbered along the chain shown (N, C = ends). [ ]: non-standard residue; d: D form. R8 = C=CCCCCCC[C@@](C)(N)C(=O)O; hLeu = CC(C)CC[C@H](N)C(=O)O; S5 = C=CCCC[C@](C)(N)C(=O)O; Nle = CCCC[C@H](N)C(=O)O; Ac3c = NC1(C(=O)O)CC1
Outcome measure: IC50

Compound	Endpoint result
CC(=O)N[C@@H](CC(C)C)C(=O)N[C@H](C(=O)N[C@@H](Cc1ccccc1)C(=O)N[C@]1(C)CCCCCC/C=C/CCC[C@@](C)(C(=O)N[C@@H](CO)C(=O)N[C@@H](C)C(=O)N[C@@H](C)C(N)=O)NC(=O)[C@H](CCC(C)C)NC(=O)[C@H](CCC(N)=O)NC(=O)[C@H](C)NC(=O)[C@H](Cc2c[nH]c3ccccc23)NC(=O)[C@H](Cc2ccc(O)cc2)NC(=O)[C@H](C)NC1=O)[C@@H](C)O [compound 115] (Ac-LTF[R8]AYWAQ[hLeu][S5]SAA-NH2; staple (E) 4-11)	100 to 1000 nM
CC(=O)N[C@@H](CC(C)C)C(=O)N[C@H](C(=O)N[C@@H](Cc1ccccc1)C(=O)N[C@]1(C)CCCCCCC=CCCC[C@@](C)(C(=O)N[C@@H](CO)C(=O)N[C@@H](C)C(=O)N[C@@H](C)C(=O)N[C@H](C)C(N)=O)NC(=O)[C@H](CC2CCC2)NC(=O)[C@H](CCC(N)=O)NC(=O)[C@H](C)NC(=O)[C@H](Cc2c[nH]c3ccccc23)NC(=O)[C@H](Cc2ccc(O)cc2)NC(=O)[C@H](CCC(=O)O)NC1=O)[C@@H](C)O (single isomer, unassigned) [compound 353]	10 to 100 nM
CCCC[C@H](NC(=O)[C@H](C)NC(=O)[C@H](C)NC(=O)[C@]1(C)CCCC=CCCCCCC[C@@](C)(NC(=O)[C@H](Cc2ccccc2)NC(=O)[C@@H](NC(=O)[C@H](CC(C)C)NC(C)=O)[C@@H](C)O)C(=O)N[C@@H](CCC(=O)O)C(=O)N[C@@H](Cc2ccc(O)cc2)C(=O)N[C@@H](Cc2c[nH]c3ccccc23)C(=O)N[C@@H](C)C(=O)N[C@@H](CCC(N)=O)C(=O)N[C@@H](CC(C)C)C(=O)N1)C(=O)N[C@@H](C)C(=O)N[C@@H](C)C(N)=O [compound 377] (Ac-LTF[R8]EYWAQL[S5]AA[Nle]AA-NH2; staple 4-11)	10 to 100 nM
CCCC[C@H](NC(=O)[C@H](C)NC(=O)[C@H](C)NC(=O)[C@]1(C)CCCC=CCCCCCC[C@@](C)(NC(=O)[C@H](Cc2ccccc2)NC(=O)[C@@H](NC(=O)[C@H](CC(C)C)NC(C)=O)[C@@H](C)O)C(=O)N[C@@H](C)C(=O)N[C@@H](Cc2ccc(O)cc2)C(=O)N[C@@H](Cc2c[nH]c3ccccc23)C(=O)N[C@@H](C)C(=O)N[C@@H](CCC(N)=O)C(=O)N[C@@H](CC(C)C)C(=O)N1)C(=O)N[C@@H](C)C(=O)NC(C)(C)C(N)=O (single isomer, unassigned) [compound 404]	10 to 100 nM

Hi, could you look up IC50 for each item in my list?
1. CC[C@H](C)[C@H](NC(=O)[C@H](C)NC(=O)[C@H](C)NC(=O)[C@]1(C)CCCC=CCCCCCC[C@@](C)(NC(=O)[C@H](Cc2ccccc2)NC(=O)[C@@H](NC(=O)[C@H](CC(C)C)NC(C)=O)[C@@H](C)O)C(=O)N[C@@H](C)C(=O)N[C@@H](CCC(=O)O)C(=O)N[C@@H](Cc2c[nH]c3ccccc23)C(=O)N[C@@H](C)C(=O)N[C@@H](CCC(N)=O)C(=O)N[C@@H](CC(C)C)C(=O)N1)C(=O)N[C@H](C)C(N)=O [compound 180] (Ac-LTF[R8]AEWAQL[S5]AAI[dA]-NH2; staple 4-11)
2. CC(=O)N[C@@H](CCC(=O)O)C(=O)N[C@H](C(=O)N[C@@H](Cc1ccccc1)C(=O)N[C@]1(C)CCCCCCC=CCCC[C@@](C)(C(=O)N[C@@H](CO)C(=O)N[C@H](C(=O)N[C@@H](CO)C(N)=O)C(C)C)NC(=O)[C@H](CC(C)C)NC(=O)[C@H](CCC(N)=O)NC(=O)[C@H](C)NC(=O)[C@H](Cc2c[nH]c3ccccc23)NC(=O)[C@H](Cc2ccc(O)cc2)NC(=O)[C@H](C(C)C)NC1=O)[C@@H](C)O [compound 130] (Ac-ETF[R8]VYWAQL[S5]SVS-NH2; staple 4-11)
3. CC(=O)N[C@@H](CCC(=O)O)C(=O)N[C@H](C(=O)N[C@@H](Cc1ccccc1)C(=O)N[C@]1(C)CCCCCCC=CCCC[C@@](C)(C(=O)N[C@@H](CO)C(=O)N[C@@H](Cc2c[nH]c3ccccc23)C(=O)N[C@@H](C)C(N)=O)NC(=O)[C@H](CC(C)C)NC(=O)[C@H](CCC(N)=O)NC(=O)[C@H](C)NC(=O)[C@H](Cc2c[nH]c3ccccc23)NC(=O)[C@H](Cc2ccc(O)cc2)NC(=O)[C@H](C(C)C)NC1=O)[C@@H](C)O [compound 128] (Ac-ETF[R8]VYWAQL[S5]SWA-NH2; staple 4-11)
4. CC(=O)N[C@@H](CC(C)C)C(=O)N[C@H](C(=O)N[C@@H](Cc1ccccc1)C(=O)N[C@]1(C)CCCCCCC=CCCC[C@@](C)(C(=O)N[C@@H](CO)C(=O)N[C@@H](C)C(=O)N[C@@H](C)C(N)=O)NC(=O)[C@H](CC(C)C)NC(=O)[C@H](CCC(N)=O)NC(=O)[C@H](C)NC(=O)[C@H](Cc2c[nH]c3ccccc23)NC(=O)[C@H](CO)NC(=O)[C@H](C)NC1=O)[C@@H](C)O (single isomer, unassigned) [compound 167]

Reply text:
1. 100 to 1000 nM
2. 100 to 1000 nM
3. 100 to 1000 nM
4. 100 to 1000 nM

Inquiry: Value lookup for IC50; key = CCCC[C@H](NC(=O)[C@H](C)NC(=O)[C@H](C)NC(=O)[C@]1(C)CCCC=CCCCCCC[C@@](C)(NC(=O)[C@H](Cc2ccccc2)NC(C)=O)C(=O)N[C@@H](C)C(=O)N[C@@H](Cc2ccc(O)cc2)C(=O)N[C@@H](Cc2c[nH]c3ccccc23)C(=O)N[C@@H](CCC(=O)O)C(=O)NC2(CC2)C(=O)N[C@@H](CC(C)C)C(=O)N1)C(N)=O [compound 14] (Ac-F[R8]AYWE[Ac3c]L[S5]AA[Nle]-NH2; staple 2-9)
Reply text: 10 to 100 nM

// data source = patent US8927500B2
